target: protein kinase C; assay: PKC Activity Inhibition Assay
readout-name: pIC50
// pIC50 here means minus log10 of the molar concentration (mol/L)

Query :: Record request: pIC50 value, item O=C1NCc2c1c1c(c3[nH]c4ccccc4c23)Cc2ccccc2-1
Result :: 6.96

Query :: Next entry: O=C1NCc2c3c(c4[nH]c5ccccc5c4c21)CCc1ccccc1-3
Result :: 7.46

Query :: Next entry: O=C1NC(=O)c2c1c1c3ccccc3ccc1c1[nH]c3ccccc3c21
Result :: 7.30

Query :: Next entry: O=C1NCc2c1c1c(c3[nH]c4ccc(C=Cc5ccccc5)cc4c23)Cc2ccccc2-1
Result :: 5.10

Query :: Next entry: O=C1NCc2c3c(c4[nH]c5ccc(Br)cc5c4c21)Cc1ccccc1-3
Result :: 6.35

Query :: Next entry: O=C1NCc2c1c1c(c3[nH]c4ccccc4c23)CCc2ccccc2-1
Result :: 6.00

Query :: Next entry: O=C1NCc2c1c1c(c3[nH]c4ccc(F)cc4c23)CCc2ccccc2-1
Result :: 6.60

Query :: Next entry: O=C1NC(=O)c2c1c1c3ccccc3[nH]c1c1sc3ccccc3c21
Result :: 6.82

Query :: Next entry: O=C1NC(=O)c2c1c1c(c3[nH]c4ccccc4c23)CCc2ccccc2-1
Result :: 7.82

Query :: Next entry: O=C1NCc2c1c1c(c3c2c2ccccc2n3CCO)Cc2ccccc2-1
Result :: 7.40

---

target: protein kinase C; assay: PKC Activity Inhibition Assay
Exercise: for every item that follows, state its recorded pIC50.
// pIC50 here means minus log10 of the molar concentration (mol/L)

Query :: Record request: pIC50 value, item O=C1NC(=O)c2c1c1c(c3[nH]c4ccc(Br)cc4c23)Cc2ccccc2-1
Result :: 6.00

Query :: Next entry: O=C1NC(=O)c2c1c1c(c3[nH]c4ccccc4c23)Cc2ccccc2-1
Result :: 7.15

Query :: Next entry: O=C1NC(=O)c2c1c1c(c3[nH]c4ccc(F)cc4c23)Cc2ccccc2-1
Result :: 6.82

Query :: Next entry: O=C1NCc2c3c(c4[nH]c5ccc(F)cc5c4c21)Cc1ccccc1-3
Result :: 7.22

Query :: Next entry: O=C1NCc2c3c(c4[nH]c5ccccc5c4c21)Cc1ccccc1-3
Result :: 7.00

Query :: Next entry: O=C1NCc2c1c1c(c3[nH]c4ccc(Br)cc4c23)Cc2ccccc2-1
Result :: 5.35

Query :: Next entry: O=C1NCc2c1c1c(c3[nH]c4ccc(F)cc4c23)Cc2ccccc2-1
Result :: 7.07

Query :: Next entry: C=CCn1c2ccccc2c2c3c(c4c(c21)Cc1ccccc1-4)C(=O)NC3
Result :: 6.52

---

tested on: choline acetyltransferase (ChAT) activity in dissociated rat embryonic spinal cord culture; assay: Spinal Cord ChAT Activity Assay; type: cell-based; conditions: ChAT measured after 48 hours
Exercise: for every item that follows, state its recorded Spinal Cord ChAT Activity, % of Control, untreated cultures.

Query :: Record request: Spinal Cord ChAT Activity, % of Control, untreated cultures value, item O=C1NC(=O)c2c1c1c(c3[nH]c4ccccc4c23)Cc2ccc(Br)cc2-1 [Compound Ib-2]
Result :: 153 % of Control

Query :: Next entry: O=C1NCc2c1c1c(c3[nH]c4ccc(C=Cc5ccccc5)cc4c23)Cc2ccccc2-1 [Compound I-24]
Result :: 236 % of Control

Query :: Next entry: O=C1NCc2c1c1c(c3[nH]c4ccc(C=CN5C(=O)c6ccccc6C5=O)cc4c23)Cc2ccccc2-1 [Compound I-39]
Result :: 268 % of Control

Query :: Next entry: O=C1NCc2c1c1c(c3[nH]c4ccc(Br)cc4c23)CCc2ccccc2-1 [Compound I-19]
Result :: 203 % of Control

Query :: Next entry: O=C1NC(=O)c2c1c1c(c3[nH]c4ccccc4c23)CCc2cc(F)ccc2-1 [Compound Ia-4]
Result :: < 120 % of Control

Query :: Next entry: Cn1c2ccccc2c2c3c(c4c(c21)Cc1ccccc1-4)C(=O)NC3=O [Compound I-4]
Result :: 124 % of Control
